- Tested on: KHOSR2 cells
- Assay Remarks: In vitro cytotoxicity MTT assay, KHOSR2
- Condition Parameters: Homo sapiens, MDR1, read-out: IC50 of doxorubicin co-treated with MDR1 siRNA-loaded nanoparticles
pIC50: −log10 of the molar value.

{"columns": ["Molecule", "Experimental Target", "pIC50"],
 "data": [
  ["COc1cccc2c1C(=O)c1c(O)c3c(c(O)c1C2=O)C[C@@](O)(C(=O)CO)C[C@@H]3O[C@H]1C[C@H](N)[C@H](O)[C@H](C)O1 [doxorubicin]", "KHOSR2 cells", 7.00]
]}
